Target: Cdk2(R122C) (C177A) (Homo sapiens, UniProt P24941, C177A/R122C)
Construct: poly-histidine; made in house; host or cells: E. coli
Assay: Kinetic thiol consumption assay with Cdk2 mutant R122C
Type: binding
Set-up: key: rate constant with Cdk2 ÷ rate constant with model thiol (fold)
Conditions: Cdk2 R122C, additional mutation C177A
Listed molecules paired with reported Rate enhancement, Cdk2 R122C
observed-property: Rate enhancement, Cdk2 R122C

molecule: C=CC(=O)NC1C2C3CCC(C3)C12 (centres unmarked)
measured-result: 0.3499
--
molecule: C=CC(=O)Nc1ccccc1N1CCOCC1
measured-result: 0.2896
--
molecule: C=CC(=O)N1CC2CC2C1 (centres unmarked)
measured-result: 0.3837
--
molecule: O=C(CCl)N1CCCCCC1
measured-result: 0.02161
--
molecule: C=CC(=O)NCc1ccccc1
measured-result: 0.5794

----------
Listed compounds paired with reported k(Cdk2)/k(Cdk2_mut) rate enhancement
Molecular target: human cyclin-dependent kinase 2 (Cdk2) (Homo sapiens, UniProt P24941)
Construct: poly-histidine; made in house; host or cells: E. coli
Experiment: Kinetic thiol consumption assay with wild type Cdk2 (C177)
Assay type: binding
Details: model thiol Cdk2[C177A, F80C, K278C]

compound: C=CC(=O)N1CCCC1c1ccc(OC)cc1 (stereo not shown)
k(Cdk2)/k(Cdk2_mut) rate enhancement: 0.6762
--
compound: C=CC(=O)NCc1ccccc1
k(Cdk2)/k(Cdk2_mut) rate enhancement: 1.108
--
compound: C=CC(=O)N(Cc1ccco1)Cc1cc2cc(C)ccc2o1
k(Cdk2)/k(Cdk2_mut) rate enhancement: 0.2468
--
compound: C=CC(=O)N(C1CC1)C1CCCCC1C1CCCCC1 (stereo not shown)
k(Cdk2)/k(Cdk2_mut) rate enhancement: 1.851

----------
Molecular target: human cyclin-dependent kinase 2 (Cdk2) (Homo sapiens, UniProt P24941)
Construct: poly-histidine; made in house; host or cells: E. coli
Assay: Kinetic thiol consumption assay with wild type Cdk2 (C177)
Type: binding
Parameters: key: k(Cdk2) divided by k(model thiol)
Settings: Cdk2 WT, no additional mutations
Given measured Rate enhancement, Cdk2 WT, output label 1 if it is greater than or equal to 0.9 and label 0 if not.

molecule: C=CC(=O)N1CCCC1c1cnc2ccccc2c1 (centres unmarked) [EL-1064]
label-class: label 0

molecule: C=CC(=O)Nc1nc2cc3c(cc2s1)OC(F)(F)O3 [CA-142]
label-class: label 1

molecule: C=CC(=O)Nc1ccc2nc(C)[nH]c2c1 [EL-1109]
label-class: label 1

molecule: C=CC(=O)N1CCn2cccc2C1c1ccccc1 (centres unmarked) [CA-187]
label-class: label 0

molecule: C=CC(=O)NCc1ccc(OC)cc1 [BN-63]
label-class: label 1

molecule: C=CC(=O)Nc1cccc2ncccc12 [CA-012]
label-class: label 1

molecule: C=CC(=O)N1CCC(c2nnc3n2CCC3)CC1 [CA-106]
label-class: label 0

molecule: C=CC(=O)NCCc1c(-c2ccccn2)[nH]c2ccc(F)cc12 [EL-1084]
label-class: label 1

molecule: C=CC(=O)N1CCCC2(CCCc3ccccc32)C1 (centres unmarked) [CA-084]
label-class: label 0

molecule: C=CC(=O)N(c1cccc2ncccc12)C1CCC1 [CA-032/228]
label-class: label 1
